Target: DNA topoisomerase 2-alpha (Homo sapiens)
Assay: Inhibition of human recombinant DNA topoisomerase 2alpha-mediated relaxation of supercoiled pBR322 DNA at 100 uM after 30 mins by agarose gel electrophoresis
The source made the active and inactive calls. No cut-off for these calls is given here.
QUANTITY NAME: inhibition

Use the examples below as a reference point.
>>> result("Cn1c(=O)sc2c(-c3ccccc3)c(O)c(O[C@@H]3O[C@H](C(=O)O)[C@@H](O)[C@H](O)[C@H]3O)c(-c3ccccc3)c21")
"inactive"
>>> result("COc1c(-c2ccccc2)cc(O[C@@H]2O[C@H](C(=O)O)[C@@H](O)[C@H](O)[C@H]2O)c(-c2ccccc2)c1O")
"Active"
>>> result("COC(=O)[C@H]1O[C@@H](Oc2c(-c3ccccc3)cc(O)c(-c3ccccc3)c2O)[C@H](O)[C@@H](O)[C@@H]1O")
"Active"
>>> result("O=C(O)[C@H]1O[C@@H](Oc2c(-c3ccccc3)cc(O)c(-c3ccccc3)c2O)[C@H](O)[C@@H](O)[C@@H]1O")
"Active"

Kindly review the next compound as well.
Prompt line: Lab note: need inhibition with DNA topoisomerase 2-alpha (Homo sapiens) for entry O=C(O)[C@H]1O[C@@H](Oc2c(O)c(-c3ccccc3)c3scnc3c2-c2ccccc2)[C@H](O)[C@@H](O)[C@@H]1O , please look it up.
Response line: inactive

---

Test system: Rhizoctonia solani
Assay: Antifungal activity against Rhizoctonia solani GXE4 at 30 ug/disc after 48 hrs by paper disc diffusion assay
Assay type: functional, organism-based
Calls of active or inactive are those of the source. The rule behind the calls is not given here.
QUANTITY NAME: Activity

Use the examples below as a reference point.
>>> result("COC(=O)[C@H]1O[C@@H](Oc2c(-c3ccccc3)cc(O)c(-c3ccccc3)c2O)[C@H](O)[C@@H](O)[C@@H]1O")
"inactive"
>>> result("O=C(O)[C@H]1O[C@@H](Oc2c(-c3ccccc3)cc(O)c(-c3ccccc3)c2O)[C@H](O)[C@@H](O)[C@@H]1O")
"inactive"
>>> result("O=C(O)[C@H]1O[C@@H](Oc2c(O)c(-c3ccccc3)c3scnc3c2-c2ccccc2)[C@H](O)[C@@H](O)[C@@H]1O")
"inactive"
>>> result("COc1c(-c2ccccc2)cc(O[C@@H]2O[C@H](C(=O)O)[C@@H](O)[C@H](O)[C@H]2O)c(-c2ccccc2)c1O")
"inactive"

Kindly review the next molecule as well.
Prompt line: So what's the measured Activity for this one? Cn1c(=O)sc2c(-c3ccccc3)c(O)c(O[C@@H]3O[C@H](C(=O)O)[C@@H](O)[C@H](O)[C@H]3O)c(-c3ccccc3)c21
Response line: inactive
